Source of measurements: the DeepSol protein solubility set

Experiment: soluble on expression in E. coli; label from the status in PepcDB or PDB records
Outcome Measure: soluble on expression in E. coli

MTGDHIKVIYFNGRGRAESIRMTLVAAGVNYEDERISFQDWPKIKPTIPGGRLPAVKITDNHGHVKWMVESLAIARYMAKKHHMMGGTEEEYYNVEKLIGQAEDLEHEYYKTLMKPEEEKQKIIKEILNGKVPVLLDIICESLKASTGKLAVGDKVTLADLVLIAVIDHVTDLDKEFLTGKYPEIHKHRENLLASSPRLAKYLSDRAATPF	soluble
MVDPPGNDDDHGDLDALDFSAAHTNEASPLDALDDYAPVQTDDAEGDLDALHALTERDEEPELELFTVTNPQGSVSVSTLMDGRIQHVELTDKATSMSEAQLADEIFVIADLARQKARASQYTFMVENIGELTDEDAEGSALLREFVGMTLNLPTPEEAAAAEAEVFATRYDVDYTSRYKADD	soluble
